assay: inhibitors of E-selectin induction by TNFa, primary screen, imaging, HUVEC, immunofluorescence, MLSMR starter and 10KST1 sets (AID 487); conditions: HUVEC TNFalpha-induced E-selectin immunofluorescence imaging, at 2 µM; active compounds read high;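 further: signal is fraction of cell area covered by stained E-selectin grains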
The entries below come with measured inhibition values attached.
Use % as the unit, but write only the number.

In [3]: df
Out[3]:
                    compound  measured_parameter  recorded_measurement
0  COC(=O)CSc1nc(N)nc(C)c1Br          inhibition                  23.8

Here is another compound to look at.
Exercise: For the compound CCCCSc1nnc2n(CCc3ccccc3)c(=O)c3c4c(sc3n12)COC(C)(C)C4 , report inhibition.
Solution: -25.9
